Where these numbers come from: ChEMBL document CHEMBL1201862

System: PC-3
Assay: NCI tumour cell line growth inhibition, 48 h
Calls of active or inactive are those of the source. Cut-off read from the data, not from the text of the source: active = GI50 up to about 1.1 µM and inactive = higher.
Items are presented alongside their recorded GI50.

Recorded results for 3 compounds are shown here.
COc1cccc(/C=N/C(/N=C/c2cccc(OC)c2O)c2cccc(OC)c2O)c1O = 26 µM (inactive)
Cc1ccc(C2(O)c3ccccc3C(=O)N(C)C2(O)c2ccc(C)cc2)cc1 (centres undefined) = > 100 µM (inactive)
C=C(CCOC)CCC1CCCCC/C1=N\N(C)C (centres undefined) = > 100 µM (inactive)

Data request: Quick one: GI50 of CN(C)CC1CCC/C(=C\c2ccccc2)C1=O (centres undefined) ?
Data returned: 8.49 µM (inactive)

Data request: Quick one: GI50 of COC(=O)CC1(O)C(/C=C/c2ccccc2)C(C(=O)OC)C(=O)C(C(=O)OC)C1C(=O)OC (centres undefined) ?
Data returned: 78.7 µM (inactive)

Data request: Quick one: GI50 of Nc1nc(-c2ccc3ccccc3c2)cc(-c2cc(-c3ccc4ccccc4c3)nc(N)n2)n1 ?
Data returned: > 100 µM (inactive)

Data request: Quick one: GI50 of O=C1Oc2ccccc2C(=O)/C1=C\NC(=S)c1ccncc1 ?
Data returned: 94.4 µM (inactive)

Data request: Quick one: GI50 of O=C1Nc2c(Cl)cc(Cl)cc2/C1=N/NC(=O)c1ccccc1O ?
Data returned: 14.8 µM (inactive)

Data request: Quick one: GI50 of O=C1C(Br)=C(Br)C(=O)c2ccc(=O)ccc21 ?
Data returned: > 56.5 µM (inactive)

Data request: Quick one: GI50 of N=C(CC(=O)NOC(=O)c1ccccc1)NOC(=O)c1ccccc1 ?
Data returned: > 100 µM (inactive)

Data request: Quick one: GI50 of CCCNC(=S)N/N=C/c1cccc(C)n1 ?
Data returned: 38.6 µM (inactive)

Data request: Quick one: GI50 of CS/C(=N\C#N)S/C=C/C(=O)c1ccc(Cl)cc1 ?
Data returned: 46.6 µM (inactive)

Data request: Quick one: GI50 of Cc1nn(C(=O)Cc2ccccc2)c2c1C(c1ccc(O)cc1O)SC(=N)N2 (centres undefined) ?
Data returned: > 100 µM (inactive)
